All figures here come from patent US20090221691A1.

- tested-target: biotinylated Gβ1γ2 mutant Asp246Ser (rat) (UniProt P54311)
- Sequence (P54311 whole entry D246S, chain 1 of 2): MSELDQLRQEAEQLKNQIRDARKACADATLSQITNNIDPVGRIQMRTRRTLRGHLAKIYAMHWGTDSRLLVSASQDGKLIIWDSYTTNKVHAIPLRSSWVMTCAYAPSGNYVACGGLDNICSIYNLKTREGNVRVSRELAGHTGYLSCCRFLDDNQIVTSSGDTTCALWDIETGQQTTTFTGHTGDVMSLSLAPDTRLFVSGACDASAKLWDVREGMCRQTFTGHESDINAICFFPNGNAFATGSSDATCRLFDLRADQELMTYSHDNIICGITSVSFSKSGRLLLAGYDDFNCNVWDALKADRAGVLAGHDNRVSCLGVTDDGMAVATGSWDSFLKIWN
- Sequence (P63212 2-68, chain 2 of 2, further chain): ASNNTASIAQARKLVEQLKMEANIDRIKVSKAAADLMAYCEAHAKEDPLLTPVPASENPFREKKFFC
- test-protocol: phage ELISA, % of wild-type b-βγ
quantity-name: % of Wild-Type Signal (%)
One number for each entry, in %.

Please review the entries below; each comes with its answer.
{"columns": ["binder", "% of Wild-Type Signal, %"],
 "data": [
  ["LCSKAYLLLGQTC (Group I) [phage 2F (LCSKAYLLLGQTC)]", 0.6],
  ["SIGKALFILGYPDYD [phage 3.14 (SIGKALFILGYPDYD)]", 66.5],
  ["SCEKRYGIEFCT [phage C4 (…)]", 35.8]
]}

Would you mind telling me what % of Wild-Type Signal value was observed for SCEKRLGVRSCT (Group III) [phage C5 (SCEKRLGVRSCT)] ? 56.3
